Target: GST-CBP(1081-1197) bromodomain (Homo sapiens (Human))
Sequence (Q92793 1081-1197): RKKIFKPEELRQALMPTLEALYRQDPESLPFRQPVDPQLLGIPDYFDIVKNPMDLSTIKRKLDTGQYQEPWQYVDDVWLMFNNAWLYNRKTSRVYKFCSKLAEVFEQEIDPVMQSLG
Test: CBP AlphaScreen Assay
Settings: binding to biotin-H4(1-21) Ac-K5/8/12/16 peptide

- chemical-smiles: "CC(=O)N1CCn2c(C3CC3)nc(N3CCCc4cc(-c5cncc(S(C)(=O)=O)c5)ccc43)c2C1"
  IC50 / nM: 510
- chemical-smiles: "CNC(=O)N1CCn2c(C3CCC(F)(F)CC3)nc(-c3cccc4cc(C5CCOCC5)ncc34)c2C1"
  IC50 / nM: 4
- chemical-smiles: "CNC(=O)N1CCn2c(C3CC3)nc(-c3cccc4nc(-c5cnn(C)c5)ncc34)c2C1"
  IC50 / nM: 16
- chemical-smiles: "CC(=O)N1CCn2c(C3CC3)nc(-c3ccc4c(c(-c5cnn(C)c5)nn4C)c3F)c2C1"
  IC50 / nM: 57
